- system: T1, Peptide A (human PAR-2), C-terminal biotinylated (Human, C-terminal biotin via G4S linker)
- T1 construct: also called Peptide A C-Term
- measurement_notes: SPR, peptide immobilized
pKd: −log10 of the molar value.
The reader will find reported pKd values listed item by item below.
result_type: pKd

binder	recorded_measurement
H4H579P (antibody, human IgG4, V domains shown, also called H1H579P variable regions) VH: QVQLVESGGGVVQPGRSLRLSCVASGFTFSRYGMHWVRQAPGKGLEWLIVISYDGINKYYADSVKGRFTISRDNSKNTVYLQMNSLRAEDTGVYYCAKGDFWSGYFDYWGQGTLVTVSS VL: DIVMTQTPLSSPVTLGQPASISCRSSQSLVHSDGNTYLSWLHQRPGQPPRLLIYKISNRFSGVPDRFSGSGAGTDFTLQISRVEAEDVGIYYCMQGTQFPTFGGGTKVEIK	9.84
H4H588N (antibody, human IgG4, V domains shown, also called H2M588N variable regions) VH: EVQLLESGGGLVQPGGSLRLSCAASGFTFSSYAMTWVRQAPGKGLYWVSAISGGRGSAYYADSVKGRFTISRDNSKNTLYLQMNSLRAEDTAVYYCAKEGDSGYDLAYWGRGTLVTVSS VL: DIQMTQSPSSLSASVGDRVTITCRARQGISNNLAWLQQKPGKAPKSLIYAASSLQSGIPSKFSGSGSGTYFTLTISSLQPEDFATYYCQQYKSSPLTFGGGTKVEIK	9.29
H4H581P (antibody, human IgG4, V domains shown, also called mAb H4H581P; H1H581P variable regions) VH: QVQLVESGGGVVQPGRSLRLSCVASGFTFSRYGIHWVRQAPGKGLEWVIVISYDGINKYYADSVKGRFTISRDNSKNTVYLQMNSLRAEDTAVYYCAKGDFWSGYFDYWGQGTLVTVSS VL: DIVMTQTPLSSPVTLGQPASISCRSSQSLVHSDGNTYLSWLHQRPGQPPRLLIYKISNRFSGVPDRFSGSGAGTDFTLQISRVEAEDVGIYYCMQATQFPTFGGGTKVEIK	9.63
H2M591N (antibody, V domains shown, chimeric: human variable, mouse constant domains) VH: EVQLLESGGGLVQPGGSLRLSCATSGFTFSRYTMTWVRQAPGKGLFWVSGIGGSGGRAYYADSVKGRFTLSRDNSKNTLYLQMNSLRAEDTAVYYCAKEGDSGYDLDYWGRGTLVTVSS VL: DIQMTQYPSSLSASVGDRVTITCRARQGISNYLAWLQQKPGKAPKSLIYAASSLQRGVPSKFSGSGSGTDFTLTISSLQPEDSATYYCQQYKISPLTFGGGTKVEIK	9.26
